Origin of values: patent US6946547B2

Test system: Antibody 1A9
Assay: CEDIA ecstasy-class assay on a Hitachi clinical chemistry analyzer
Type: binding, mouse
Conditions: antibody 1A9; summary of detected ecstasy-class compounds
PROPERTY MEASURED: Cross-Reactivity (%)
Expressed in %, but write only the number.

Inquiry: Suppose we examine the compound CC(N)Cc1ccc2c(c1)OCO2 (centres unmarked) [MDA, 3,4-methylenedioxyamphetamine] ; what Cross-Reactivity value has been reported?
Reply text: 55

Inquiry: Suppose we examine the compound CCNC(C)Cc1ccc2c(c1)OCO2 (centres unmarked) [MDEA, N-ethyl-3,4-methylenedioxyamphetamine] ; what Cross-Reactivity value has been reported?
Reply text: 155

Inquiry: Suppose we examine the compound CCC(Cc1ccc2c(c1)OCO2)NC (centres unmarked) [MBDB] ; what Cross-Reactivity value has been reported?
Reply text: 23

Inquiry: Suppose we examine the compound CNC(C)Cc1ccc2c(c1)OCO2 (centres unmarked) [MDMA, 3,4-methylenedioxymethamphetamine] ; what Cross-Reactivity value has been reported?
Reply text: 100

Inquiry: Suppose we examine the compound CCC(N)Cc1ccc2c(c1)OCO2 (centres unmarked) [BDB] ; what Cross-Reactivity value has been reported?
Reply text: 33

====

Experiment: Standard CEDIA DAU Amphetamines assay, Hitachi 911
Settings: concentration 300 ng/ml; methamphetamine = 100
Decision: Cross-reactivity, Standard CEDIA Amphetamines compared against 50; not below it gives class 1, below it gives class 0.

Inquiry: Dear colleague, could you confirm whether CC(N)Cc1ccc2c(c1)OCO2 (stereo not drawn) has Cross-reactivity, Standard CEDIA Amphetamines at or above 50?
Reply text: class 0

Inquiry: Dear colleague, could you confirm whether CCC(Cc1ccc2c(c1)OCO2)NC (stereo not drawn) has Cross-reactivity, Standard CEDIA Amphetamines at or above 50?
Reply text: class 1

Inquiry: Dear colleague, could you confirm whether CCNC(C)Cc1ccc2c(c1)OCO2 (stereo not drawn) has Cross-reactivity, Standard CEDIA Amphetamines at or above 50?
Reply text: class 0

Inquiry: Dear colleague, could you confirm whether CCC(N)Cc1ccc2c(c1)OCO2 (stereo not drawn) has Cross-reactivity, Standard CEDIA Amphetamines at or above 50?
Reply text: class 0

Inquiry: Dear colleague, could you confirm whether CN[C@@H](C)Cc1ccccc1 has Cross-reactivity, Standard CEDIA Amphetamines at or above 50?
Reply text: class 1
